experiment: Inhibition of recombinant Mycobacterium tuberculosis InhA expressed in Escherichia coli Rosetta (DE3) pLysS using 2-trans-decenoyl-N-acetylcyste-amine as substrate in presence of NADH by spectrophotometric method
Metric Name: pIC50
pIC50 here is simply -log10 of the concentration when that concentration is written in mol/L.

>>> test_result("CN(C)c1ccc(/C=C2\\SC(=S)N([C@@H](Cc3c[nH]c4ccccc34)C(=O)O)C2=O)cc1 (stereo in doubt; 24)")
4.83
>>> test_result("O=C(O)[C@H](Cc1c[nH]c2ccccc12)N1C(=O)/C(=C/c2c3ccccc3c(Cl)c3ccccc23)SC1=S")
5.54

Enquiry: # return recorded pIC50 for input CN(C)c1ccc(/C=C2\SC(=S)N([C@@H](Cc3c[nH]c4ccccc34)C(=O)O)C2=O)cc1 (stereo in doubt; 12)
Return: 4.54

Enquiry: Output measured pIC50 for this item: O=C(O)[C@H](Cc1c[nH]c2ccccc12)N1C(=O)/C(=C/c2ccc(Cl)cc2Cl)SC1=S
Return: 5.02

----------
test: Inhibition of recombinant Mycobacterium tuberculosis InhA expressed in Escherichia coli Rosetta (DE3) pLysS using 2-trans-decenoyl-N-acetylcyste-amine as substrate in presence of NADH by spectrophotometric method
Here, each record is paired with measured pIC50 data.
Scale note: pIC50 = -log10(concentration in M).

Some molecules with recorded pIC50:
>>> test_result("CCCc1ccc(/C=C2\\SC(=S)N([C@H](Cc3c[nH]c4ccccc34)C(=O)O)C2=O)cc1")
4.89
>>> test_result("Cc1ccc(/C=C2\\SC(=S)N([C@H](Cc3c[nH]c4ccccc34)C(=O)O)C2=O)c2ccccc12")
4.96

Enquiry: Specify measured pIC50 for O=C(O)[C@H](Cc1c[nH]c2ccccc12)N1C(=O)/C(=C/c2ccc(Cl)cc2)SC1=S .
Return: 4.71

----------
experiment: Inhibition of recombinant Mycobacterium tuberculosis InhA expressed in Escherichia coli Rosetta (DE3) pLysS using 2-trans-decenoyl-N-acetylcyste-amine as substrate in presence of NADH by spectrophotometric method
Metric Name: IC50
Output should be the measured figure followed by the unit it is expressed in.

Solved entries (count: 3):
>>> test_result("CCCc1ccc(/C=C2\\SC(=S)N([C@@H](Cc3c[nH]c4ccccc34)C(=O)O)C2=O)cc1")
"13 µM"
>>> test_result("Oc1cc(Cl)ccc1Oc1ccc(Cl)cc1Cl [TRICLOSAN]")
"6.1 µM"
>>> test_result("Cc1ccc(/C=C2\\SC(=S)N([C@@H](Cc3c[nH]c4ccccc34)C(=O)O)C2=O)c2ccccc12")
"8.7 µM"

Enquiry: Return the recorded IC50 value; entry: CCCCC(C(=O)O)N1C(=O)/C(=C/c2ccc(N(C)C)c3ccccc23)SC1=S (racemic)
Return: 24.4 µM

Enquiry: # return recorded IC50 for entry CC(C)CC(N1C(=O)/C(=C/c2ccc(N(C)C)c3ccccc23)SC1=S)P(=O)(O)O (centres undefined)
Return: 19.1 µM

Enquiry: For the molecule CN(C)c1ccc(/C=C2\SC(=S)N([C@@H](Cc3c[nH]c4ccccc34)C(=O)O)C2=O)c2ccccc12 , give its measured IC50 value.
Return: 19.1 µM

Enquiry: Read the entry O=C(O)[C@H](Cc1c[nH]c2ccccc12)N1C(=O)/C(=C/c2ccc(N(CCCl)CCCl)cc2)SC1=S and write its reported IC50.
Return: 12.2 µM

Enquiry: Answer with the recorded IC50 for the molecule listed here: CCN(CC)c1ccc(/C=C2\SC(=S)N([C@@H](CC(C)C)C(=O)O)C2=O)cc1
Return: 22.4 µM

Enquiry: Provide one value: measured IC50 of O=C(O)[C@@H](Cc1c[nH]c2ccccc12)N1C(=O)/C(=C/c2ccc(N(CCCl)CCCl)cc2)SC1=S
Return: 15.2 µM

----------
tested on: Mycobacterium marinum; assay: Antivirulence activity against Mycobacterium marinum assessed as Dictyostelium discoideum phagocytic plaque formation at 10 uM preincubated for 2 to 3 hrs followed by Dictyostelium discoideum addition measured after 5 to 9 days in presence of Klebsiella pneumoniae relative to control; type: functional
Calls of active or inactive are those of the source. The calls are words filed in the database; no cut-off is given here.
Metric Name: Activity

# annotated cases, reported Activity shown
>>> test_result("O=C(O)[C@H](Cc1c[nH]c2ccccc12)N1C(=O)/C(=C/c2ccc(N(CCCl)CCCl)cc2)SC1=S")
"Active"
>>> test_result("CCN(CC)c1ccc(/C=C2\\SC(=S)N([C@@H](CC(C)C)C(=O)O)C2=O)cc1")
"Active"
>>> test_result("O=C(O)[C@H](Cc1c[nH]c2ccccc12)N1C(=O)/C(=C/c2ccc(Cl)cc2Cl)SC1=S")
"Active"
>>> test_result("Cc1ccc(/C=C2\\SC(=S)N([C@H](Cc3c[nH]c4ccccc34)C(=O)O)C2=O)c2ccccc12")
"Active"
>>> test_result("Cc1ccc(/C=C2\\SC(=S)N([C@@H](Cc3c[nH]c4ccccc34)C(=O)O)C2=O)c2ccccc12")
"Active"
>>> test_result("CCCc1ccc(/C=C2\\SC(=S)N([C@@H](Cc3c[nH]c4ccccc34)C(=O)O)C2=O)cc1")
"Active"
>>> test_result("O=C(O)[C@H](Cc1c[nH]c2ccccc12)N1C(=O)/C(=C/c2c3ccccc3c(Cl)c3ccccc23)SC1=S")
"Active"
>>> test_result("CCCc1ccc(/C=C2\\SC(=S)N([C@H](Cc3c[nH]c4ccccc34)C(=O)O)C2=O)cc1")
"Active"

Enquiry: Please list Activity recorded for the compound CN(C)c1ccc(/C=C2\SC(=S)N([C@@H](Cc3c[nH]c4ccccc34)C(=O)O)C2=O)c2ccccc12
Return: Active
